- System: MDA-MB-435 melanoma
- Experiment notes: NCI-60 one-dose screen, 48 h (100 = growth as untreated, 0 = no growth, -100 = all killed)
- Assay setup: 10 µM unless noted
The panel holds about 83,000 compounds, 20% with a hit somewhere; the sample as a whole holds those more often. The source made the active and inactive calls. Rule for the calls: active = growth percent below 10; inactive = the rest.
Reported metric: growth

Compound	growth
Cc1ccc(NC2=N[C@]34CC(=O)CC[C@]3(C)[C@H]3CC[C@]5(C)C(=O)CC[C@H]5[C@@H]3C[C@@H]4S2)c(C)c1	16.9% (inactive)
CO[C@@H]([CH2][Hg][O]C(=O)c1ccccc1)[C@@H]([CH2][Hg][O]C(=O)c1ccccc1)OC	104% (inactive)
Cc1cc[c-]cc1.Fc1c[c-]c(-c2ccccn2)c(F)c1.N#CCC[PH+](CCC#N)c1ccccc1.[Pt+2]	30.9% (inactive)
O=[N+]([O-])c1ccc(OCc2ccc(S(=O)(=O)F)c(Cl)c2)c(Cl)c1	113% (inactive)
N#CC(N)c1ccccc1 (configuration not stated)	98.3% (inactive)
C[C@]12CCC3[C@@H](C[C@@H]4SC(Nc5ccccc5)=N[C@@]45CC(=O)CC[C@]35C)[C@@H]1CCC2=O (some centres not stated)	1.11% (active)

Prompt: Quick one: growth of C[C@]12CC[C@H](O)C[C@@H]1CC[C@@H]1[C@@H]2CC[C@]2(C)OC(=O)CC[C@@H]12 ?
Response: 102% (inactive)

Prompt: Quick one: growth of CNC(=O)CCl ?
Response: 101% (inactive)

Prompt: Quick one: growth of CCCCn1c(=O)c(C(=O)NCc2ccccc2Cl)c(O)c2ccccc21 ?
Response: 98.5% (inactive)

Prompt: Quick one: growth of [N-]=[N+]=CC(=O)CCC(=O)C=[N+]=[N-] ?
Response: 113% (inactive)

Prompt: Quick one: growth of O=[N+]([O-])c1ccc2scc3c4ccccc4nc-3c2c1 ?
Response: -2.05% (active)

Prompt: Quick one: growth of C[C@]12CC[C@H]3[C@@H](CC=C4c5nc(-c6ccc(Br)cc6)sc5CC[C@@]43C)[C@@H]1CC[C@@H]2O ?
Response: 96.1% (inactive)

----------
Known growth of a selection of compounds
- Tested on: A549/ATCC NSCLC
- Experiment notes: NCI-60 one-dose screen, 48 h (100 = growth as untreated, 0 = no growth, -100 = all killed)
- Assay setup: 10 µM unless noted
Compounds without any hit were thinned out: in the full panel of roughly 83,000, 20% have a hit. Calls of active or inactive are those of the source. Rule for the calls: active = growth percent below 10; inactive = the rest.

Prompt: Quick one: growth of Nc1cccnc1 ?
Response: 106% (inactive)

Prompt: Quick one: growth of Cc1cc(N)ccc1N ?
Response: 98.2% (inactive)

Prompt: Quick one: growth of C[C@]12CC[C@H]3[C@@H](C[C@@H]4SC(Nc5cccc(F)c5)=N[C@@]45CC(=O)CC[C@]35C)[C@@H]1CCC2=O ?
Response: 35.4% (inactive)

Prompt: Quick one: growth of CC[C@H](C)[C@H](NC(=O)c1ncccn1)C(=O)N(C)[C@H](C[C@@H](OC(C)=O)c1nc(C(=O)N[C@@H](Cc2ccccc2)C[C@H](C)C(=O)OC)cs1)C(C)C ?
Response: 32.9% (inactive)

Prompt: Quick one: growth of O=[N+]([O-])c1ccc(CI)cc1 ?
Response: 101% (inactive)

Prompt: Quick one: growth of CCOC(=O)c1ccccc1C(=O)OCC ?
Response: 99.2% (inactive)

Prompt: Quick one: growth of Oc1cc(N2CC2)c(O)cc1N1CC1 ?
Response: -1.9% (active)
